ASSAY_REMARKS: soluble on expression in E. coli; label from the status in PepcDB or PDB records

{"RECORD_SEQUENCE": "MASNYNSGLKIGAWVGTQPSESAIKSFQELQGRKLDIVHQFINWSTDFSWVRPYADAVYNNGSILMITWEPWEYNTVDIKNGKADAYITRMAQDMKAYGKEIWLRPLHEANGDWYPWAIGYSSRVNTNETYIAAFRHIVDIFRANGATNVKWVFNVNCDNVGNGTSYLGHYPGDNYVDYTSIDGYNWGTTQSWGSQWQSFDQVFSRAYQALASINKPIIIAEFASAEIGGNKARWITEAYNSIRTSYNKVIAAVWFHENKETDWRINSSPEALAAYREAIGALEHHHHHH", "soluble on expression in E. coli": "soluble"}
{"RECORD_SEQUENCE": "MQRMNFSSLIETFAVDFQLVLPSVEGAGKYIHGEWFPTNEEPKTVSGAIIPYDNRTIYQSGGTLTSSDRQLAYVGSIPLGSKIIDMGKEYKVESEEPYAEHYADVNLYRLKAVTNNAAN", "soluble on expression in E. coli": "not soluble"}
{"RECORD_SEQUENCE": "MLTRLAAVLEERKNAAPDSSYVASLYHKGLNKILEKVGEESVETIIAAKDAAASGDCQDLIYETADLWFHSLVMLSALGQHPQAVLDELERRFG", "soluble on expression in E. coli": "soluble"}
{"RECORD_SEQUENCE": "MRDAEKTVGNMIDKLKTAFIGSIDSEGFPNMKAMLQPRKREGIKTIYLTTNTSSMRVAQYRENNHACIYFCDTRFFRGVMLRGTMEVLTDPASKEMIWQEGDTMYYPEGVTDPDYCVLKFTAISGRFYSNFKSESFAVE", "soluble on expression in E. coli": "not soluble"}
{"RECORD_SEQUENCE": "MKGMSKMPQFNLRWPGGGPQFNLRWPREVLDLVRKVAEENGRSVNSEIYQRVMESFKKEGRIGGTGGSGGGREVLDLVRKVAEENGRSVNSEIYQRVMESFKKEGRIGAHHHHHHKNQHE", "soluble on expression in E. coli": "soluble"}
{"RECORD_SEQUENCE": "MTFLRYAIYFLPPASEAWAGFGASWLGWDVETGQELAHPAETGLDVAALTATPRKYGLHATMKPPFRLAEGQDVDALRRACATLAASRPAVTLDGLEIARLGRFLALRPVGELGALNALAAACVTELDPFRAPATPQELVRRRAARLSPEQDAHLLSWGYPYVLDQFRFHITLTGRLDDDMLMQAQTLLQRRLGPLLPVPFTLADLALVGEAGDGRFHLIHRYALSR", "soluble on expression in E. coli": "not soluble"}
{"RECORD_SEQUENCE": "FDLNDFLEQKVLVRMEAIINSMTMKERAKPEIIKGSRKRRIAAGSGMQVQDVNRLLKQFDDMQRMMKKM", "soluble on expression in E. coli": "soluble"}
{"RECORD_SEQUENCE": "MGSDKIHHHHHHMKNAMLVLCVFLGLSACADRDLMPIVPEAVEIGTPYTVFSTTTRAQEADGTYGFRRSEQLRMMEMTVTIPPNHSPGELSYRYKNPDPHKNFAIAEELPVASVSDLRARFLREQRENNWPLREVTIFVHGYNSTHPETAYRSAQMAHDVELPGSLVMYSWPSRGRAFGYAYDIDSMLFARDGLEETVRRVKQAGAERIILVAHSMGTALAMEMLRQADLRNPGWAARTLNGGVILISPDLDVDVFESQMMDLKQVPQPFGVMVSEKDHILNISGRLRGTSEGERLGNIKSAERLMKWPIEVIDLTAFNADAASGHFVAATSPSLLAVIRSASNVSRLFGPVDPTLFQQILPQSQTIVTDHGKLMLARQQRQEER", "soluble on expression in E. coli": "not soluble"}
{"RECORD_SEQUENCE": "MGSDKIHHHHHHMRKINMMTTFECRVHTLEFDENYQPEMQSTRLTTNFANLARGENRKENLQNVIAMIDKRFNDLANWDNPTNDRYSVKLEIVSIDIDMEGKGKFFPALEWLKTYVIDHKTGKRIDGIVGNNFSSFVRDYDFSVLLLEHNRNKEEFTVPKGYGELHGKLFKYLLTSSAYKEKYSKPPVICLSVATTRTYRRTTNVHPILGVEYHQDNYSLTDEYFAKMGLSVRYFMPPKSVAPYAFYFDSNSDLLNDYTNLELISTIATMEAFQKIYRPEIYNANSVAGQVYKGSLTYQDYSVTKVEYDRVERTQLAIKQGKYTEAHFIKPYKAILDAWMAEK", "soluble on expression in E. coli": "not soluble"}
{"RECORD_SEQUENCE": "SWMEEVIKLCGRELVRAQIAICGMSTWS", "soluble on expression in E. coli": "soluble"}
{"RECORD_SEQUENCE": "MGSDKIHHHHHHMAWHKLGRVYCADGFADWAQHSFMTPVPVQMSADVIRLYGGMRDDAGISRIGWVDLDAHNPLRVIAVCDAPALDLGEPGMFDDNGVILGDVIRTSEAELRMYYVGFQLVEKAKFLAFTGVAISDASGTRFDRVFPTPVLDRAPEALFINALHSIAQTETGFRAWISCGQRWQDINGRIYPQYNCWTVPSEDGLHFDMRDAVKIMDVNEAEYRIGRPRANRLADGSFELRVTSDTFDKHYSSHLAHSKDGIVFQRSDEVELPRGAPGDWDAEMTCYPARIDTPTGRSYLFYNGNNMGETGVGVAEWQAEA", "soluble on expression in E. coli": "not soluble"}
{"RECORD_SEQUENCE": "MDPNKFREKEISKKEALELFEDNEIIFELFKFADSLRREEVGDIVTYVVNRNINFTNICVGNCRFCAFRANENDKHAYFLDIDEIAKRAVEAKKFGCTEVCIQGGLHPKIDTYYQAEILKAVHEATKPYGDIHIHAFSPMEVYFGAENAGLDIKEALKILKENGLNSMPGTAAEILDDDIRAELCPNKIKTKEWIYIIKEAHKLGIPTTATMMYGHIEEYKHWVNHLFIIKEIQEETNGFTEFVPLSFMHKYAPIYKEGKAKAGATGIEDLKVFAVSRIIFKGLIKNIQASWVKLGKKMVQVALRCGANDVGGTLIEESISRSAGAEHGVYMSVEEIRDMIKRVGLIPKERTTLYKILE", "soluble on expression in E. coli": "not soluble"}
{"RECORD_SEQUENCE": "MGSDKIHHHHHHMSPEPNGDAVSIILETEGPMTAAPKTVRSVERTLQILELMNRAAVVRVQYLAEQIGLPAPTVVRLLETLVAAGYVRKIGRQAGYCVTEKVAALGAGHHGLPQVFDVAREAAEDLTRRTLWPTALATLDVDALVIRFSTIPMSPLSHYQSTINRRMTLLDYAHGRAYLGFCPTEERQHLVALLQQTAGSVEEARAIGERAQSVVALTRASGFGERTGNIQPETHSLALPLRMGAKLVGTLGITYFAKAKVDVSALKSDLRAAAEACTSGTAYRAPASSG", "soluble on expression in E. coli": "not soluble"}
